assay: HUVEC growth inhibition – cell-based, human, primary screen (AID 575); details: HUVEC proliferation, CellTiter-Glo luminescence, 72 h; at 10 µM; stronger effect = lower value;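 also: 100% = median of untreated cell wells with 0.1% DMSO on each plate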
ENDPOINT: viability (%)

> print(dat)
                                    compound  display.unit  observed.measurement
 1  CCOC(=O)C1CCN(c2c(N3CCCC(C(=O)OCC)C3)c(=O)c2=O)CC1 (stereo unspecified)             %                  97.1
 2       O=C(COC(=O)CCC(=O)c1cccs1)NCc1ccco1             %                  89.3
 3   COc1ccc(OC)c(C(=O)COC(=O)c2cc(C)oc2C)c1             %                  62.9
 4   Cc1cnc(NC(=O)CSc2nc3ccccc3c(=O)[nH]2)s1             %                  76.5
 5         O=C(Nc1ccc2c(c1)OCO2)c1cncc(Br)c1             %                    82
 6  Cc1cc(C)n(-c2cc(N3CCOCC3)nc(-c3ccccc3)n2)n1             %                  75.7
 7    c1ccc(-c2nnc(OCCN3CCOCC3)c3ccccc23)cc1             %                  87.3
 8  COc1ccc2nc3oc(C(=O)NC4CCN(Cc5ccccc5)CC4)cc3cc2c1             %                  57.5
 9  Cc1ccccc1N1OC2C(=O)N(c3ccc(F)cc3)C(=O)C2C1c1ccccn1 (stereo unspecified)             %                   115
10              O=C(Nn1cnnc1)c1cc2c(s1)CCCC2             %                    80
11  FC(F)(F)c1cccc(N2CCN(c3nnnn3-c3ccccc3)CC2)c1             %                    81

----------
The entries below are paired with their reported viability.
test: reversal of MRP1-mediated doxorubicin resistance, pilot screen, H69AR cells, doxorubicin co-treatment (AID 601); conditions: H69AR cells + 2 uM doxorubicin, CellTiter-Glo, 72 h; measured here: viability with 2 uM doxorubicin; at 10 µM; stronger effect = lower value
ENDPOINT: viability (%)

> print(dat)
                                   compound   endpoint  observed.measurement
1  C=CCN(C(=O)CNS(=O)(=O)c1ccccc1)C(C(=O)NCCOC)c1ccncc1 (stereo unspecified)  viability                  96.3
2  COCCn1c(C)cc(C(=O)CSc2nc3ccccc3c(=O)[nH]2)c1C  viability                  88.9
3        CCOC(=O)c1c(NC(=O)c2cccs2)sc(C)c1C  viability                  83.6
4                   N#CCSc1nc(-c2ccccc2)cs1  viability                  98.9
5        O=C(Nc1ccccn1)NC(C(F)(F)F)C(F)(F)F  viability                  90.3
6         COc1ccc(C(=O)NCCn2ccc3ccccc32)cc1  viability                    84

----------
The entries below are paired with their reported viability.
experiment: growth inhibitors of H69AR lung tumor, primary screen, human, duplicate replicates (AID 580); settings: H69AR lung tumor cells viability, ATP luminescence, 72 h; at 10 µM; stronger effect = lower value;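 also: 100% = mean luminescence of untreated wells and 0% = no signal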
ENDPOINT: viability (%)

> print(dat)
                                    molecule   endpoint  display.unit  observed.measurement
 1  O=C(NC1CCCC1)C1CC1c1ccccc1 (stereo unspecified)  viability             %                  98.3
 2  COc1cc(NC(=O)c2cc(OC)c(OC)c(OC)c2)c(OC)cc1NC(=O)CN1CCCCC1  viability             %                  65.9
 3  Cc1cc(NC(=O)CSc2ccc3nnc(-c4cccc(F)c4)n3n2)no1  viability             %                  94.6
 4  Cc1onc(-c2ccccc2)c1C(=O)Nc1ccnn1C1CCCCC1  viability             %                  90.6
 5  COc1ccc(N2CCN(C(=O)COc3ccc4ccccc4c3)CC2)cc1  viability             %                   108
 6  CCN(CC)C(=O)CN(c1cc(Cl)ccc1OC)S(C)(=O)=O  viability             %                   102
 7             O=C(O)c1[nH]nc2c1COc1ccccc1-2  viability             %                   100
 8            Nc1ncnc2nc(SCCN3CCCCC3)[nH]c12  viability             %                   100
 9  COc1ccc(-c2cc(C(F)(F)F)nc(SCCC(=O)N3CCOCC3)n2)cc1  viability             %                    90
10  CCOC(=O)N1CCN(C(=O)CSc2nnc(Cc3ccccc3)o2)CC1  viability             %                   103
11  CCOC(=O)C(NC(=O)c1ccc(OC)cc1)(N1CCOCC1)C(F)(F)F (stereo unspecified)  viability             %                   100
12                      c1ccc2c(c1)sc1nnnn12  viability             %                  86.6
13         Cc1cc(Nc2ccccc2N2CCOCC2)n2ncnc2n1  viability             %                  97.1
14  Cc1ccc(CN2C(=O)CCC2C(=O)NCCCN2CCC(C)CC2)cc1 (stereo unspecified)  viability             %                   103
15  COc1ccc(C2C(C#N)=C(N)OC3=C2C(=O)CC(C)C3)c(OC)c1OC (stereo unspecified)  viability             %                   100
16  N#Cc1c(NC(=O)c2ccc(Br)o2)n(-c2ccccc2)c2nc3ccccc3nc12  viability             %                  85.2
17  CC1=CC=CC2=NC(=O)CC(C)(C(=O)N(CC(=O)NC(C)C)C3CCCC3)N12 (stereo unspecified)  viability             %                    94
18  Cc1ccc(NC(=O)CS(=O)CC(=O)NCC2CCCO2)cc1 (stereo unspecified)  viability             %                  96.8
19  Cc1noc(C)c1CSc1nnc2n(-c3ccccc3)c(=O)c3ccccc3n12  viability             %                  81.7
20  O=C(O)C1CC(=O)N(c2ccc(OCc3ccccc3Cl)cc2)C1 (stereo unspecified)  viability             %                    90
21               COc1cc(SC)ccc1C(=O)Nc1ccon1  viability             %                   101
22  CCN(c1c(C)n(C)n(-c2ccccc2)c1=O)S(C)(=O)=O  viability             %                  95.6
23  CC(C)CCNC(=O)NC(=O)CN1C(=O)NC2(CCCCC2)C1=O  viability             %                  96.9
24  Cc1cc(NC(c2cccnc2)c2c(C)[nH]c3ccccc23)no1 (stereo unspecified)  viability             %                    89
25  CCCCOc1ccc(-c2nnn(CC(=O)NCc3ccco3)n2)cc1  viability             %                  23.9
26  COc1ccc2c(c1)C(C)=CC(C)(C)N2C(=O)C(C)N1C(=O)c2ccccc2C1=O (stereo unspecified)  viability             %                  85.7
27  N#Cc1nc(-c2ccco2)oc1N1CCN(c2cccc(Cl)c2)CC1  viability             %                    90
28  CCOc1ccc(N(CC)C(=O)COc2cc(=O)n(C)c3ccccc23)cc1  viability             %                  86.1
29  Cc1ccc(-c2csc3nnc(SCC(=O)NCc4ccco4)n23)cc1  viability             %                  84.2
30     C=CCSc1nc2c(c(=O)[nH]c(=O)n2C)n1C(C)C  viability             %                   106
31                Cc1nc(CCNC(=O)c2ccccc2)cs1  viability             %                  98.5
32  COc1cccc(C(=O)NCc2nnc(SCC(=O)Nc3nccs3)n2-c2ccccc2)c1  viability             %                  97.9
33  CC1CCC2C(C1)c1sc(=O)[nH]c1SC2(C)C (stereo unspecified)  viability             %                   106
34        CCC(=O)Nc1cc2nn(-c3ccccc3)nc2cc1Cl  viability             %                  68.2
35  Cc1ccc(OC(=O)NC2CCS(=O)(=O)C2)cc1C (stereo unspecified)  viability             %                  95.3
36  CC(=O)C1=C(C)NC(SCSc2ccccc2)=C(C#N)C1c1cccnc1 (stereo unspecified)  viability             %                  94.1
37  Cc1cccc(NC(=O)CCN2CCN(C/C=C/c3ccccc3)CC2)c1  viability             %                  86.3
38  O=C(C1CCCN(S(=O)(=O)c2cnc[nH]2)C1)N1CC(=O)N(CCc2ccccc2)C(=O)C1 (stereo unspecified)  viability             %                    95
39                  COC(=O)Nc1nc2c(C)cccc2s1  viability             %                  85.4
40  Cc1ccc(NC2=NC(c3ccccc3)n3c(nc(C)cc3=O)N2)cc1 (stereo unspecified)  viability             %                  88.5
41  COc1cccc(-n2ccnc2SCC(=O)N2CCc3ccccc32)c1  viability             %                   102
42              Cc1nn(-c2ccccc2)c(C)c1/C=N/O  viability             %                  96.5
43  COc1ccc(CNc2nc(SCC(=O)NCc3ccco3)nc3ccccc23)cc1  viability             %                  94.4
44  CCc1nnc(NC(=O)c2ccc(S(=O)(=O)NCC(C)C)cc2)s1  viability             %                  98.3
45  CCCCC(CC)C(=O)Nc1ccc(Cl)cn1 (stereo unspecified)  viability             %                  94.3
46  COc1ccc(-c2cc3n(n2)CCc2nc4ccccc4n2-3)cc1  viability             %                  93.3

Taken from PubChem BioAssay.
